Answer each item with its documented melting point.

IN: Given COc1ccc2[nH]c3c(c2c1)C[C@@]1(C)C(=O)N(CCN2CCOCC2)C(=O)N1[C@@H]3c1cccc(O)c1 (racemic) , state its recorded melting point.
OUT: 260 to 263 °C

IN: Given CCOc1ccc2[nH]c3c(c2c1)C[C@@]1(C)C(=O)N(CCBr)C(=O)N1[C@@H]3c1cccc(O)c1 (racemic) , state its recorded melting point.
OUT: 250 to 252 °C

IN: Given COc1ccc2[nH]c3c(c2c1)C[C@@]1(C)C(=O)N(CCCN(C)C)C(=O)N1[C@@H]3c1cccc(O)c1 (racemic) , state its recorded melting point.
OUT: 228 to 231 °C

IN: Given COc1ccc2[nH]c3c(c2c1)C[C@@]1(C)C(=O)N(CCBr)C(=O)N1[C@@H]3c1cccc(O)c1 (racemic) , state its recorded melting point.
OUT: 299 to 302 °C

###

# Tested on: RKO p27 or p21 induced (arrested) colon adenocarcinoma cells
# PROCEDURE_DETAILS: Alamar Blue cell viability assay, RKO p27 or p21 induced (arrested)
# Assay type: cell-based
# RUN_PARAMETERS: Homo sapiens, RKOp27, Table B2, cells arrested by Ponasterone A, 72 hours, read-out: −log EC50 RKO p27 or p21 induced (arrested) (converted)
MEASURED_ENDPOINT: EC50

IN: Request body: readout EC50, system RKO p27 or p21 induced (arrested) colon adenocarcinoma cells, query COc1ccc2[nH]c3c(c2c1)C[C@@]1(C)C(=O)N(CCN(C)CCO)C(=O)N1[C@@H]3c1cccc(O)c1 (racemic) [Example 118] . Return the value.
OUT: ≥ 0.316 µM

IN: Request body: readout EC50, system RKO p27 or p21 induced (arrested) colon adenocarcinoma cells, query COc1ccc2[nH]c3c(c2c1)C[C@@]1(C)C(=O)N(CCCNC2CCC2)C(=O)N1[C@@H]3c1cccc(O)c1 (racemic) [Example 86] . Return the value.
OUT: ≥ 3.16 µM

IN: Request body: readout EC50, system RKO p27 or p21 induced (arrested) colon adenocarcinoma cells, query C=CCNCCCN1C(=O)N2[C@H](c3cccc(O)c3)c3[nH]c4ccc(Cl)cc4c3C[C@@]2(C)C1=O (racemic) [Example 139] . Return the value.
OUT: ≥ 3.16 µM

IN: Request body: readout EC50, system RKO p27 or p21 induced (arrested) colon adenocarcinoma cells, query CCN(C)CCCN1C(=O)N2[C@H](c3cccc(O)c3)c3[nH]c4ccc(OC)cc4c3C[C@@]2(C)C1=O (racemic) [Example 77] . Return the value.
OUT: ≥ 3.16 µM

IN: Request body: readout EC50, system RKO p27 or p21 induced (arrested) colon adenocarcinoma cells, query C[C@@]12Cc3c([nH]c4ccc(Cl)cc34)[C@@H](c3cccc(O)c3)N1C(=O)N(CCCCl)C2=O (racemic) [Example 57] . Return the value.
OUT: ≥ 0.316 µM

IN: Request body: readout EC50, system RKO p27 or p21 induced (arrested) colon adenocarcinoma cells, query CNCCCN1C(=O)N2[C@H](c3cccc(O)c3)c3[nH]c4ccc(Cl)cc4c3C[C@@]2(C)C1=O (racemic) [Example 130] . Return the value.
OUT: ≥ 0.316 µM

IN: Request body: readout EC50, system RKO p27 or p21 induced (arrested) colon adenocarcinoma cells, query COc1ccc2[nH]c3c(c2c1)C[C@@]1(C)C(=O)N(CCCNCC(C)C)C(=O)N1[C@@H]3c1cccc(O)c1 (racemic) [Example 92] . Return the value.
OUT: ≥ 3.16 µM

IN: Request body: readout EC50, system RKO p27 or p21 induced (arrested) colon adenocarcinoma cells, query CCN(C)CCCN1C(=O)N2[C@H](c3cccc(O)c3)c3[nH]c4ccc(Cl)cc4c3C[C@@]2(C)C1=O (racemic) [Example 140] . Return the value.
OUT: ≥ 3.16 µM

IN: Request body: readout EC50, system RKO p27 or p21 induced (arrested) colon adenocarcinoma cells, query COc1ccc2[nH]c3c(c2c1)C[C@@]1(C)C(=O)N(CCNCC(F)F)C(=O)N1[C@@H]3c1cccc(O)c1 (racemic) [Example 73] . Return the value.
OUT: ≥ 3.16 µM

IN: Request body: readout EC50, system RKO p27 or p21 induced (arrested) colon adenocarcinoma cells, query COc1ccc2[nH]c3c(c2c1)C[C@@]1(C)C(=O)N(CCN2CCC(C)CC2)C(=O)N1[C@@H]3c1cccc(O)c1 (racemic) [Example 75] . Return the value.
OUT: ≥ 3.16 µM

IN: Request body: readout EC50, system RKO p27 or p21 induced (arrested) colon adenocarcinoma cells, query COc1ccc2[nH]c3c(c2c1)C[C@@]1(C)C(=O)N(CCCN2CCOCC2)C(=O)N1[C@@H]3c1cccc(O)c1 (racemic) [Example 148] . Return the value.
OUT: ≥ 0.316 µM

IN: Request body: readout EC50, system RKO p27 or p21 induced (arrested) colon adenocarcinoma cells, query COc1ccc2[nH]c3c(c2c1)C[C@@]1(C)C(=O)N(CCN2CCCCCC2)C(=O)N1[C@@H]3c1cccc(O)c1 (racemic) [Example 74] . Return the value.
OUT: ≥ 3.16 µM

IN: Request body: readout EC50, system RKO p27 or p21 induced (arrested) colon adenocarcinoma cells, query C[C@@]12Cc3c([nH]c4ccc(Cl)cc34)[C@@H](c3cccc(O)c3)N1C(=O)N(CCN1CC=CC1)C2=O (racemic) [Example 109] . Return the value.
OUT: ≥ 0.316 µM
